- targetOfAssay: Renin (Homo sapiens, UniProt P00797)
- Sequence (P00797 whole entry): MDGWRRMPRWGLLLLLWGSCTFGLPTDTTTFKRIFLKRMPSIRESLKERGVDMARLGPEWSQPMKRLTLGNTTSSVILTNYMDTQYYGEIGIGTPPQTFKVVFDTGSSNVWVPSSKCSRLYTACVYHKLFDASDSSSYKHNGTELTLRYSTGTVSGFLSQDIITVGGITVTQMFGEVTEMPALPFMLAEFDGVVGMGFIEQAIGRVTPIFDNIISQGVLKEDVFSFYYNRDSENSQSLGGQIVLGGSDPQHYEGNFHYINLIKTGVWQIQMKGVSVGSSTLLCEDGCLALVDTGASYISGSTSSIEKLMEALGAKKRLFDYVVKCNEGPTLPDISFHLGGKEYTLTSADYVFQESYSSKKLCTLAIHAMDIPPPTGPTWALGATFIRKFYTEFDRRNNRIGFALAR
- measurementProtocol: The compound was evaluated in vitro for inhibition of human plasma renin at pH 7.4.
measurementName: IC50 (µM)

The following compounds have reported results that may help.
>>> readoutvalue("CC(C)(C)OC(=O)N[C@@H](Cc1ccccc1)C(=O)N[C@H]1CCC(=O)NCCOC(=O)[C@H](O)[C@H](CC2CCCCC2)NC1=O")
0.61
>>> readoutvalue("CC(C)(C)OC(=O)N[C@@H](Cc1ccccc1)C(=O)N[C@H]1CNC(=O)CCCOC(=O)[C@H](O)[C@H](CC2CCCCC2)NC1=O")
9.2
>>> readoutvalue("CC(C)(C)OC(=O)N[C@@H](Cc1ccccc1)C(=O)N[C@H]1CCC(=O)NCCC[C@H](O)[C@H](O)[C@H](CC2CCCCC2)NC1=O")
0.65

(A) CC(C)(C)OC(=O)N[C@@H](Cc1ccccc1)C(=O)N[C@H]1CNC(=O)CCCCOC(=O)[C@H](O)[C@H](CC2CCCCC2)NC1=O
(B) CC(C)(C)OC(=O)N[C@@H](Cc1ccccc1)C(=O)N[C@H]1CCC(=O)NCCCC(=O)[C@H](O)[C@H](CC2CCCCC2)NC1=O
(C) CC(C)(C)OC(=O)N[C@@H](Cc1ccccc1)C(=O)N[C@H]1CCC(=O)NCCCOC(=O)[C@H](O)[C@H](CC2CCCCC2)NC1=O
Rank the 3 compounds: largest IC50 first, smallest last. Kindly provide the labels arranged according to the requested ordering.
B, C, A
(B: 14 µM, C: 7 µM, A: 0.59 µM)
